# Tested on: Fibroblast
# procedure details: Multiplex assay against human fibroblast
# Format: toxicity, cell-based
# condition summary: 24 h, 10 µM, compound concentration 10 uM, number of replicates 2
We begin with a simple list: items and their reported Population Hoechst High Intensity Objects (%).
quantity: Population Hoechst High Intensity Objects (%)

{"columns": ["compound", "measured value"],
 "data": [
  ["COc1cc(OC)cc(C(=O)NNC(=O)Nc2cccc3ccccc23)c1", 0],
  ["CS(=O)(=O)c1ccc(C(=O)Nc2cccc(COc3ccc(Br)cc3CN3CCC[C@H](O)C3)c2)c(Cl)c1.O=CO", 0],
  ["CCNc1ccc(-c2nn(-c3ccccc3C)c3c2C(C)Cc2nc(NC(=O)OC)sc2-3)cn1.O=C(O)C(F)(F)F (stereo not drawn)", 0]
]}

---

Entries and their measured Population Mitochondria Different-Phenotype (%) follow.
# System: Fibroblast
# procedure details: Multiplex assay against human fibroblast
# Assay type: toxicity, cell-based
# condition summary: 48 h, 1 µM, compound concentration 1 uM, number of replicates 2
quantity: Population Mitochondria Different-Phenotype (%)

{"columns": ["compound", "measured value"],
 "data": [
  ["O=C(NCc1ccc(F)cc1)N1CCN2C(=O)OC(c3ccccc3)(c3ccccc3)C2C1 (configuration not stated)", 0],
  ["CN1CCCN(C(=O)c2cccc(-c3ccc(/C=C4/C(=O)Nc5ccc(Cl)cc54)o3)c2)CC1", 1],
  ["CC1=C(C)C(=O)C(C(C)(C)CC(=O)N(CCCCSC[C@H]2O[C@@H](n3cnc4c(N)ncnc43)[C@H](O)[C@@H]2O)Cc2cccc(-c3ccc(Cl)cc3)c2)=C(C)C1=O", 0],
  ["CN(C)[C@H]1CC[C@H](Nc2ncc3ncnc(Nc4ccc(F)c(Cl)c4)c3n2)CC1", 0],
  ["C=CC(=O)Nc1ccc2[nH]c(=O)n(C3CCN(Cc4ccc(-c5ccc6c(c5)NC(=O)CO6)cc4)CC3)c2c1", 0],
  ["CN(C)CC#Cc1ccc2[nH]c3c(c2c1)-c1nc(N)ncc1CCC3", 0],
  ["N=C(N)NCCC[C@H](NC(=O)COCC(c1ccccc1)c1ccccc1)C(=O)O.O=C(O)C(F)(F)F", 0],
  ["COCCN1CCN(CCn2ccc(Nc3ncc4c(n3)-c3c(nn(C)c3-c3ccccc3)C[C@H]4C)n2)CC1", 0],
  ["CCn1ccc(Nc2ncc3c(n2)-c2c(nn(C)c2-c2ccc(-c4cnn(C)c4)cc2Cl)CC3)n1", 0],
  ["COc1ccc(-c2cc3c(C)nc(N)nc3n([C@H]3CC[C@H](OCCO)CC3)c2=O)cn1", 0],
  ["CNC(=O)c1c(F)cccc1Nc1nc(Nc2cc3c(cc2OC)CCN3C(=O)CN(C)C)nc2[nH]ccc12", 0],
  ["C[C@@H](OC[C@@]1(c2ccccc2)CC[C@]2(CCC(=O)N2)CN1)c1cc(C(F)(F)F)cc(C(F)(F)F)c1", 1],
  ["CC(C)N(CCCCOCC(=O)NS(C)(=O)=O)c1cnc(-c2ccccc2)c(-c2ccccc2)n1", 0],
  ["Cc1onc(-c2ccccc2Cl)c1C(=O)N(C)c1ccc(Cl)cc1", 0],
  ["COc1cc(Br)c(S(=O)(=O)Nc2ccc(C(F)(F)F)c(O[C@@H]3CCN(C)C3)c2)cc1OC", 1],
  ["CCn1c(-c2nonc2N)nc2cncc(C(=O)N3CC[C@H](N)C3)c21.Cl", 0],
  ["Cc1ccc(C(=O)Nc2cc(N3CCN(C)CC3)cc(C(F)(F)F)c2)cc1-n1cc(-c2cnn(C)c2C)nn1.Cl", 5]
]}
